meta.source: patent US5679671A

Target: ACE (Rattus norvegicus, UniProt P47820)
Construct: membrane fraction prepared from rat lung; from tissue; host or cells: rat lung, membrane fraction (method of Wu-Wong et al.)
Sequence (P47820 36-1313): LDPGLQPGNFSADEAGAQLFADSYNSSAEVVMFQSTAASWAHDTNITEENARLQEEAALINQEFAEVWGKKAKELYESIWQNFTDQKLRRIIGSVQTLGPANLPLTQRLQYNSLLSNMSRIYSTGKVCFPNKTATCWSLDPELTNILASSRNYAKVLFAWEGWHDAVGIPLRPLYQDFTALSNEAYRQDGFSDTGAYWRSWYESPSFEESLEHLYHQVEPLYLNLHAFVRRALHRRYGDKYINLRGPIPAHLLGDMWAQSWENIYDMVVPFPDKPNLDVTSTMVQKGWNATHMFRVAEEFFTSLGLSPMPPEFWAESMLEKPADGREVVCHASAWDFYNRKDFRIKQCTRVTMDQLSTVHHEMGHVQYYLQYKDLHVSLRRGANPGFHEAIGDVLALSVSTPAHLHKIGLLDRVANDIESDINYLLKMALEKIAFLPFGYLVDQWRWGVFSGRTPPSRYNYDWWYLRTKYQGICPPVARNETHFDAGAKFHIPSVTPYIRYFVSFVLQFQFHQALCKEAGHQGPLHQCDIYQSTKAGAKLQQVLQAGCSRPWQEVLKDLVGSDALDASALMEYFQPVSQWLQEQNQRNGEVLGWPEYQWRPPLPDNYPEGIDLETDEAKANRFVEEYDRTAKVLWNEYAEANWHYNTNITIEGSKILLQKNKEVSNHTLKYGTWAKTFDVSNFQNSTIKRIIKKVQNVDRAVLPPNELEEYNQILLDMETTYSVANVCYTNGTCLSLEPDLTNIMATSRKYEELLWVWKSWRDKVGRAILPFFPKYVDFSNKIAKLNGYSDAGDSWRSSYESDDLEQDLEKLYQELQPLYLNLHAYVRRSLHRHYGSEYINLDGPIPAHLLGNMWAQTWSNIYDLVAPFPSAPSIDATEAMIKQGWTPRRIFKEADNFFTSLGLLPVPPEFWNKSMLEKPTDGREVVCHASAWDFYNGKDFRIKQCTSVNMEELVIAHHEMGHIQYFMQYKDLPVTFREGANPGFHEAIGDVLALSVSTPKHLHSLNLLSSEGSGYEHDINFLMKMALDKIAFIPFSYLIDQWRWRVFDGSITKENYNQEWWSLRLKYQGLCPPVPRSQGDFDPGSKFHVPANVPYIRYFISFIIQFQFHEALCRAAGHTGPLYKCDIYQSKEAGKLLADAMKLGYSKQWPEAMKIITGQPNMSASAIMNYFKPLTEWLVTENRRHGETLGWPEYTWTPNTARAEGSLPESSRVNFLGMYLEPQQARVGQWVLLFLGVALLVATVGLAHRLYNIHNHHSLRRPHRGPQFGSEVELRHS
Assay: ACE inhibition activity using rat lung (Experiment C-2)
Format: biochemical
Settings: Table C-1; rat lung membrane fraction, borate buffer pH 8.3
Rule: IC50 below 10 nM gives y, anything at or above gives n.

1. O=C(N[C@H]1Cc2ccccc2[C@H]2CCC[C@@H](C(=O)O)N2C1=O)[C@@H](S)Cc1ccccc1 [Comp. cpd. E-1, reference compound]: y
2. CC[C@H](C)[C@H](S)C(=O)N[C@H]1CCC[C@H]2SC[C@@H](C(=O)O)N2C1=O [Example C-8]: y
3. CC[C@H](C)[C@H](S)C(=O)NC1CCc2ccccc2N(CC(=O)O)C1=O (stereo partly shown) [Example A-9]: n
4. CC[C@H](C)[C@H](S)C(=O)N[C@H]1Cc2ccc(NS(C)(=O)=O)cc2[C@H]2CCC[C@@H](C(=O)O)N2C1=O [Example C-15]: n
5. CC[C@H](C)[C@H](S)C(=O)N[C@H]1Cc2ccc(-c3ccccc3)cc2[C@H]2CCC[C@@H](C(=O)O)N2C1=O [Example C-14]: n
6. CC[C@H](C)[C@H](S)C(=O)N[C@H]1CCc2ccccc2N(CC(=O)O)C1=O [Example A-11]: n
7. CC[C@H](C)[C@H](S)C(=O)N[C@H]1CSc2ccccc2N(CC(=O)O)C1=O [Example C-12]: n

----------
Test: Blood level and bioavailability in rats (Experiment E-2)
Settings: rat, blood, po, 10 mg/kg
property name: bioavailability

1) O=C(N[C@H]1Cc2ccccc2[C@H]2CCC[C@@H](C(=O)O)N2C1=O)[C@@H](S)Cc1ccccc1 [Comp. cpd. E-1, reference compound]: 4.3%

----------
Molecular target: vasopressin (V1) receptor (Rattus norvegicus, UniProt P30560)
Construct: Membrane specimens of rat liver (V1); from tissue; host or cells: rat liver membranes
Sequence (P30560 whole entry): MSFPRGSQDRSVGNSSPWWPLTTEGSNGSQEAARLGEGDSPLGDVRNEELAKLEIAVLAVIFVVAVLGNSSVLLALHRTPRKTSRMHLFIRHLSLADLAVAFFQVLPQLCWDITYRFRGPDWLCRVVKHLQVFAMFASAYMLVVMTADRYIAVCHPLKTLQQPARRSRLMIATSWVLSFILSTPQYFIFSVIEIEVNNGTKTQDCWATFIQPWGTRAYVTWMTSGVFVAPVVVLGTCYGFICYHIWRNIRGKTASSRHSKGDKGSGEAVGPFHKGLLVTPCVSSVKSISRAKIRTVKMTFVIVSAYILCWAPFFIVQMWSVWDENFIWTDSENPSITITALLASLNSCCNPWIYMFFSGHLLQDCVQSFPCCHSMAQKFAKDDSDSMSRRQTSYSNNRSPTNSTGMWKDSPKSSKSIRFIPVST
Experiment: V1 receptor binding assay, rat liver membrane (Experiment E-3)
Details: [3H]-Arg-vasopressin, pH 7.4
property name: IC50

1. CC(C)[C@H](S)C(=O)N[C@H]1Cc2ccc(-c3ccccc3)cc2[C@H]2CCC[C@@H](C(=O)O)N2C1=O [Example E-10]: ≥ 10 µM
